Provenance of the data: ChEMBL document CHEMBL1157917

System: Trichophyton rubrum
test-summary: Antifungal activity against Trichophyton rubrum after 7 days by serial dilution method
Assay type: functional
condition: 168 h
metric: MIC80 (µg/mL)
Number only, in µg/mL; omit the unit.

Below are worked cases with known answers.
molecule	uom	MIC80
Cc1ccccc1CON=C1CCN(CC(O)(Cn2cncn2)c2ccc(F)cc2F)CC1 (racemic)	µg/mL	16
OC(Cn1cncn1)(Cn1cncn1)c1ccc(F)cc1F	µg/mL	1
OC(CN1CCC(=NOCc2cccc(F)c2)CC1)(Cn1cncn1)c1ccc(F)cc1F (racemic)	µg/mL	0.0625

Query: // MIC80 lookup, key: OC(CN1CCC(=NOCc2ccccc2Br)CC1)(Cn1cncn1)c1ccc(F)cc1F (racemic)
Result: 0.0625

Query: // MIC80 lookup, key: OC(CN1CCC(=NOCc2ccc(Cl)c(Cl)c2)CC1)(Cn1cncn1)c1ccc(F)cc1F (racemic)
Result: 0.0625

Query: // MIC80 lookup, key: C[C@@H](c1ncncc1F)[C@](O)(Cn1cncn1)c1ccc(F)cc1F
Result: 0.004

Query: // MIC80 lookup, key: OC(CN1CCC(=NOCc2cccc(C(F)(F)F)c2)CC1)(Cn1cncn1)c1ccc(F)cc1F (racemic)
Result: 16

Query: // MIC80 lookup, key: OC(CN1CCC(=NOCc2ccc(Br)cc2)CC1)(Cn1cncn1)c1ccc(F)cc1F (racemic)
Result: 0.016

Query: // MIC80 lookup, key: O=[N+]([O-])c1ccc(CON=C2CCN(CC(O)(Cn3cncn3)c3ccc(F)cc3F)CC2)cc1 (racemic)
Result: 0.0625

Query: // MIC80 lookup, key: COc1cccc(CON=C2CCN(CC(O)(Cn3cncn3)c3ccc(F)cc3F)CC2)c1 (racemic)
Result: 16
